# Tested on: Swiss mice
# Experimental Protocol: Oral toxicity (mortality) in the mouse, Table 1
# Assay type: in vivo
# Experimental Setup: 1000 mg/kg, 14 days, 20160 min
Please go through the items and note down their % of mortality.
Numbers only, in %.

In the examples that follow, each entry is paired with its recorded % of mortality.
Compound | Display Unit | % of mortality
C(=Nc1cc2c(cc1CCN1CCCCC1)OCO2)c1cccnc1 [COR 01 174] | % | 10
C(=Nc1cc2c(cc1CCN1CCCCC1)OCO2)c1cccnc1 [COR 01 202] | % | 60
CN(C)CCc1cc2c(cc1N=Cc1cccnc1)OCO2 [COR 01 170] | % | 0
CN(C)CCc1cc2c(cc1N=Cc1cccnc1)OCO2 [COR 01 201] | % | 10

Now for another entry.
Query: // fetch % of mortality given entry C(=Nc1cc2c(cc1CCN1CCCC1)OCO2)c1cccnc1 [COR 01 186]
Reply: 40

###

# Experimental Protocol: Oral toxicity (mortality) in the mouse, Table 1
# Assay type: in vivo
# Experimental Setup: mouse, in vivo, po, 1000 mg/kg, Swiss mice, 14 days
Property: mortality at 336 h (%)
Answers are plain numbers, in %.

Some solved cases for reference:
Item Smiles | Property | Display Unit | Result
CN(C)CCc1cc2c(cc1N=Cc1ccccc1C(=O)O)OCO2 | mortality at 336 h | % | 0
CC(C)(C)NCCc1cc2c(cc1N=Cc1cccnc1)OCO2 | mortality at 336 h | % | 0
C(=Nc1cc2c(cc1CCN1CCCC1)OCO2)c1cccnc1 | mortality at 336 h | % | 30
CN(C)CCc1cc2c(cc1N=Cc1ccccc1)OCO2 | mortality at 336 h | % | 0
CN(C)CCc1cc2c(cc1N=CC=Cc1ccccc1)OCO2 | mortality at 336 h | % | 0
CN(C)CCc1cc2c(cc1N=Cc1ccc(Cl)cc1)OCO2 | mortality at 336 h | % | 20

// input: 4 compounds below; output: mortality at 336 h for each
1. Cc1ccc(C=Nc2cc3c(cc2CCN(C)C)OCO3)s1
2. C(=Nc1cc2c(cc1CCN1CCOCC1)OCO2)c1cccs1
3. CN1CCN(CCc2ccccc2N=Cc2cccnc2)CC1
4. COc1ccc(C=Nc2cc3c(cc2CCN(C)C)OCO3)cc1

Reply:
1: 20; 2: 70; 3: 0; 4: 10

###

For each entry below, report its mortality at 336 h value.
# Experimental Protocol: Oral toxicity (mortality) in the mouse, Table 1
# Type: in vivo
# Experimental Setup: mouse, in vivo, po, 750 mg/kg, Swiss mice, 14 days
# Procedure: The mortality percentages caused by the products of the present invention administered orally to Swiss mice are shown in Table 1. The animals, free of specific pathological organism were housed in an air conditioned room from 24 to 48 hours before the start of the experiments. They were divided up into lots of 5 males and 5 females. […] The mortality was recorded at 14 days. […]
Numbers only, in %.

Record mortality at 336 h per entry; entries follow.
1. C(=Nc1cc2c(cc1CCN1CCCC1)OCO2)c1cccnc1
2. Cc1ccc(C=Nc2cc3c(cc2CCN(C)C)OCO3)s1
3. CN(C)CCc1cc2c(cc1N=Cc1ccc(Cl)cc1)OCO2
4. C(=Cc1ccccc1)C=Nc1cc2c(cc1CCN1CCCC1)OCO2

Reply:
[0, 50, 30, 0]

###

# Test system: Swiss mice
# Experimental Protocol: Oral toxicity (mortality) in the mouse, Table 1
# Format: in vivo
# Experimental Setup: 250 mg/kg, 14 days, 20160 min
Record form. Attribute: % of mortality. Fill in for each entry.
Answers are plain numbers, in %.

Molecule | Display Unit | % of mortality
CN(C)CCc1cc2c(cc1N=Cc1cccs1)OCO2 [COR 01 151] | % | 10

Parameter requested: % of mortality. Apply to each item below.
1. CN(C)CCc1cc2c(cc1N=Cc1cccs1)OCO2 [COR 01 179]
2. CN(C)CCc1cc2c(cc1N=Cc1cccs1)OCO2 [COR 01 171]
3. CN(C)CCc1cc2c(cc1N=Cc1cccs1)OCO2 [COR 01 163]

Reply:
1. 10
2. 80
3. 70

###

# Test system: trembling induced by oxotremorine
# Experimental Protocol: Antagonism of trembling induced by oxotremorine, Table 7
# Type: in vivo
# Experimental Setup: 50 mg/kg, oral; read-out: % of inhibition of trembling induced by oxotremorine
# Text: The psychotropic profile of the present invention products has been characterized with the animals in numerous tests some of whose results are shown hereinafter. The products of the invention were always administered orally in 6% gum base. Certain tests made it possible to show antidepressive activities. […]
Property: change in vivo at 50 mg/kg (%)
One number for each entry, in %.

Please review the entries below; each comes with its answer.
Molecule | Result
C(=Nc1cc2c(cc1CCN1CCCCC1)OCO2)c1cccnc1 [COR 01 202] | -67
C(=Nc1cc2c(cc1CCN1CCOCC1)OCO2)c1cccnc1 [COR 01 204] | -30
CN1CCN(CCc2ccccc2N=Cc2cccnc2)CC1 [COR 01 205] | -30

Please state, for each entry, its recorded change in vivo at 50 mg/kg.
1. C(=Nc1cc2c(cc1CCN1CCCC1)OCO2)c1cccnc1 [COR 01 173]
2. C(=Nc1cc2c(cc1CCN1CCOCC1)OCO2)c1cccs1 [COR 01 180]

Reply:
-20
-22

###

# Experimental Protocol: Oral toxicity (mortality) in the mouse, Table 1
# Assay type: in vivo
# Experimental Setup: mouse, in vivo, po, 1500 mg/kg, Swiss mice, 14 days
Each record is given condition met if its reported mortality at 336 h is strictly below 20%. Records at or above 20% are given condition not met.

Compound | Assigned Category
Cc1ccc(C=Nc2cc3c(cc2CCN(C)C)OCO3)cc1 [COR 01 206] | condition met
CN(C)CCc1ccccc1N=CC=Cc1ccccc1 [COR 01 185] | condition met
CN(C)CCc1cc2c(cc1N=Cc1ccc[n+]([O-])c1)OCO2 [COR 01 203] | condition met
CC(Cc1ccccc1N=Cc1cccnc1)N(C)C (stereo not drawn) [COR 01 214] | condition not met
CN1CCN(CCc2ccccc2N=Cc2cccnc2)CC1 [COR 01 205] | condition met
C(=Cc1ccccc1)C=Nc1cc2c(cc1CCN1CCCC1)OCO2 [COR 01 200] | condition not met
C(=Nc1cc2c(cc1CCN1CCCC1)OCO2)c1cccnc1 [COR 01 186] | condition not met
CN(C)CCc1cc2c(cc1N=Cc1ccccc1)OCO2 [COR 01 209] | condition not met
C(=Nc1cc2c(cc1CCN1CCOCC1)OCO2)c1cccnc1 [COR 01 204] | condition met
CN(C)CCc1cc2c(cc1N=Cc1cccnc1)OCO2 [COR 01 170] | condition not met

Query: In plain terms, does Cc1ccc(C=Nc2cc3c(cc2CCN(C)C)OCO3)s1 [COR 01 169] come in under 20% for mortality at 336 h?
Reply: condition not met

Query: Is mortality at 336 h strictly under 20% for the entry CN(C)CCc1ccccc1N=Cc1cccnc1 [COR 01 184] ?
Reply: condition met

###

Would you mind telling me the reported % of increase in the number of displacements of the animal of each entry?
# System: number of displacements of the animal
# Experimental Protocol: Four plates test (anxiolytic activity), Table 5
# Format: in vivo
# Experimental Setup: 50 mg/kg, oral, mouse

# annotated cases, reported % of increase in the number of displacements of the animal shown
Compound | Study System | Result
C(=Nc1cc2c(cc1CCN1CCCCC1)OCO2)c1cccnc1 [COR 01 202] | number of displacements of the animal | +96%
CN(C)CCc1cc2c(cc1N=Cc1cccnc1)OCO2 [COR 01 170] | number of displacements of the animal | +36%
C(=Nc1cc2c(cc1CCN1CCOCC1)OCO2)c1cccs1 [COR 01 180] | number of displacements of the animal | +88%
C(=Nc1cc2c(cc1CCN1CCCC1)OCO2)c1cccnc1 [COR 01 173] | number of displacements of the animal | +60%

Continue with the compound presented below.
Query: Print number of displacements of the animal % of increase in the number of displacements of the animal for C(=Cc1ccccc1)C=Nc1cc2c(cc1CCN1CCCC1)OCO2 [COR 01 200] .
Reply: +84%

###

# Experimental Protocol: Oral toxicity (mortality) in the mouse, Table 1
# Format: in vivo
# Experimental Setup: mouse, in vivo, po, 750 mg/kg, Swiss mice, 14 days
# Procedure: The mortality percentages caused by the products of the present invention administered orally to Swiss mice are shown in Table 1. The animals, free of specific pathological organism were housed in an air conditioned room from 24 to 48 hours before the start of the experiments. They were divided up into lots of 5 males and 5 females. […] The mortality was recorded at 14 days. […]
Property: mortality at 336 h (%)
Answers are plain numbers, in %.

Item Smiles | mortality at 336 h, %
C(=Nc1cc2c(cc1CCN1CCCCC1)OCO2)c1cccs1 | 10

Provide mortality at 336 h values for the following items, in order.
1. C(=Nc1cc2c(cc1CCN1CCCCC1)OCO2)c1cccnc1
2. COc1ccc(C=Nc2cc3c(cc2CCN(C)C)OCO3)cc1
3. CN(C)CCc1cc2c(cc1N=Cc1ccc(Cl)c(Cl)c1)OCO2
4. CN(C)CCc1cc2c(cc1N=Cc1cccs1)OCO2

Reply:
30
0
0
60
